The reported measurements were obtained from ChEMBL document CHEMBL1123575.

# assay.target: Phosphodiesterase; PDE3 & PDE4 (Homo sapiens) (UniProt P27815+Q14432+Q08499+Q07343+Q13370+Q08493)
# test.summary: Inhibition of cAMP Phosphodiesterase enzyme.
# Assay type: protein assay
property.label: PDE inhibition

structure.string | number
COc1ccc2[nH]c(=O)nc(C)c2c1OC | 91
CSc1ccc(C(=O)c2[nH]c(=O)[nH]c2C)cc1 | 72
COc1ccc(C(=O)N2CCN(c3ccc4c(c3)CCC(=O)N4)CC2)cc1OC | 87

---

# assay.target: Beta-1 adrenergic receptor (Homo sapiens) (UniProt P08588)
# Sequence (P08588 whole entry, looked up): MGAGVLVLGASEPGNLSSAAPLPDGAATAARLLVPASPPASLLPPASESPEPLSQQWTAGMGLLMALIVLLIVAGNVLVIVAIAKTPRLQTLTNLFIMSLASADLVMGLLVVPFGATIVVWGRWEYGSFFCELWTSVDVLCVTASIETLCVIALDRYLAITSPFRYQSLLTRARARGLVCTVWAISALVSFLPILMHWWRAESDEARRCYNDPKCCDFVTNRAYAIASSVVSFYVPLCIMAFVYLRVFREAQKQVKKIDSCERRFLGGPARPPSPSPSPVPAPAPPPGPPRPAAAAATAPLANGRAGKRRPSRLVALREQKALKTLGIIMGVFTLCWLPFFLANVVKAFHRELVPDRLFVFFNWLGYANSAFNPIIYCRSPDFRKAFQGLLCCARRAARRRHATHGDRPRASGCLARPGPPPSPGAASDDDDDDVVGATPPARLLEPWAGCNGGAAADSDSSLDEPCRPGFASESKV
property.label: Inotropic effect

As a guide, the following entries are already answered.
compound | Inotropic effect
C[C@@H]1C(=O)NC2=Nc3cccc(Cl)c3CN21 | 89
CC(CCc1ccc(O)cc1)NCCc1ccc(O)c(O)c1 (stereo unspecified) | 26
Nc1cc(-c2ccncc2)c[nH]c1=O | 57

a. CCCCNC(=O)NC1CCN(c2ncnc3cc(OC)c(OC)cc23)CC1
b. C[C@H](CCc1ccc(O)cc1)NC[C@H](O)c1ccc(O)cc1
Inquiry: Could you check which of a and b has a smaller value for Inotropic effect? Respond with the label that goes with your answer.
Reply text: b
(b: 39, a: 85)
